- System: Mycobacterium tuberculosis
- test protocol: Antimicrobial activity against Mycobacterium tuberculosis H37Rv by microplate alamar blue assay
- Assay type: functional
Reported MIC values follow for various compounds

molecular string	MIC
N#Cc1c(-c2ccccc2)[n+]([O-])c2ccccc2[n+]1[O-]	0.2 µg/mL
CCOC(=O)c1c(-c2ccc(Br)cc2)[n+]([O-])c2ccccc2[n+]1[O-]	0.39 µg/mL
N#Cc1c(-c2ccccc2)[n+]([O-])c2cc(Cl)c(Cl)cc2[n+]1[O-]	0.2 µg/mL
N#Cc1c(-c2ccc(F)cc2)[n+]([O-])c2ccc(F)cc2[n+]1[O-]	< 0.2 µg/mL
N#Cc1c(-c2ccc(OC(F)(F)F)cc2)[n+]([O-])c2cc(Cl)c(Cl)cc2[n+]1[O-]	< 0.2 µg/mL
COc1ccc(-c2c(C#N)[n+]([O-])c3cc(C)ccc3[n+]2[O-])cc1	< 0.2 µg/mL
Cc1ccc2c(c1)[n+]([O-])c(C#N)c(-c1ccc(F)cc1)[n+]2[O-]	< 0.2 µg/mL
Cc1ccc(-c2c(C#N)[n+]([O-])c3cc(F)ccc3[n+]2[O-])cc1	< 0.2 µg/mL
CCOC(=O)c1c(-c2ccc(Cl)cc2)[n+]([O-])c2ccccc2[n+]1[O-]	0.39 µg/mL
CCOC(=O)c1c(-c2ccccc2)[n+]([O-])c2ccc(Cl)cc2[n+]1[O-]	1.56 µg/mL
